Test system: A2780
Assay: Antiproliferative activity against human A2780 cells by SRB assay
Assay type: functional, cell-based

| entry.smiles | unit.label | IC50 |
| --- | --- | --- |
| COc1cc(=O)oc(/C=C/C=C/C=C/C(C)=C/[C@]2(C)O[C@H](C)[C@](C)(O)[C@@H]2O)c1C | µM | 8.2 |

----------
Molecular target: 20S proteasome
Experiment: Inhibition of chymotrypsin-like activity of human erythrocytes 20S proteasome using Suc-LLVY-AMC as substrate and measured by fluorescence assay
pIC50: −log10 of the molar value.

| entry.smiles | pIC50 |
| --- | --- |
| CC[C@H](C)[C@@H]1NC(=O)[C@@H](CCC(N)=O)NC(=O)CNC(=O)[C@H](Cc2ccc(O)cc2)/N=C\[C@H](CC(C)C)NC(=O)[C@H](C(C)C)NC(=O)[C@H](CO)NC1=O | 7.02 |

----------
Tested on: MDA-MB-435
Assay: Antiproliferative activity against human MDA-MB-435 cells after 72 hrs by CellTiter 96 AQueous One Solution Cell Proliferation assay
Type: functional, cell-based
Settings: MDA-MB-435, 72 h
pIC50: −log10 of the molar value.

| entry.smiles | target.system | pIC50 |
| --- | --- | --- |
| CO[C@H]1[C@H](O[C@H]2CC[C@]3(C=O)[C@H]4CC[C@]5(C)[C@](O)(C6=CC(=O)OC6)CC[C@]5(O)[C@@H]4CC[C@]3(O)C2)O[C@H](C)[C@H](O)[C@@H]1OC | MDA-MB-435 | < 5.00 |

----------
Tested on: MCF7
Test: Antiproliferative activity against human MCF7 cells
Type: functional, cell-based
pIC50: −log10 of the molar value.

| compound | target.system | pIC50 |
| --- | --- | --- |
| CC(=O)C1=C(O)C=C2Oc3c(C(C)=O)c(O)c(C)c(O)c3C2(C)C1=O (stereo unspecified) | MCF7 | 5.17 |

----------
Test system: HT-29
Assay: Antiproliferative activity against human HT-29 cells after 3 days by SRB assay
Assay type: functional, cell-based
Details: HT-29, 72 h
In this section, each of the molecules is paired with its reported IC50.

| molecule | censoring.operator | IC50 (µM) |
| --- | --- | --- |
| COc1ccc([C@@]23Oc4cc(OC)cc(OC)c4[C@]2(O)[C@H](O)[C@H](C(N)=O)[C@H]3c2ccccc2)cc1 [DIDESMETHYLROCAGLAMIDE] | = | 0.021 |
| COc1ccc([C@@]23Oc4cc5c(c(OC)c4[C@]2(O)[C@H](O)[C@H](C(N)=O)[C@H]3c2ccccc2)[C@H]2OC[C@H]([C@H](O)CO)O[C@H]2O5)cc1 | > | 10 |

----------
Overview of reported pIC50 across a group of compounds:
System: MDA-MB-435
Experiment: Antiproliferative activity against human MDA-MB-435 cells
Assay type: functional, cell-based
pIC50: −log10 of the molar value.

| compound | censoring.operator | pIC50 |
| --- | --- | --- |
| CCCC[C@H]1CCCC[C@H](C)Cc2cc(O)c(c(O)c2)[C@@H](CCCC)CCCC[C@H](C)[C@@H](O[C@@H]2OC[C@@H](O)[C@@H](O)[C@H]2O)c2cc(O)c1c(O)c2 | = | 6.22 |
| CCCC[C@H]1CCCC[C@H](C)[C@@H](O)c2cc(O)c(c(O)c2)[C@@H](CCCC)CCCC[C@H](C)[C@@H](O[C@@H]2OC[C@@H](O)[C@@H](O)[C@H]2O)c2cc(O)c1c(O)c2 | = | 6.22 |
| CCCC[C@H]1CCCC[C@H](C)[C@@H](O[C@H]2OC[C@@H](O)[C@@H](O)[C@H]2O)c2cc(O)c(c(O)c2)[C@@H](CCCC)CCCC[C@H](C)[C@@H](O[C@@H]2OC[C@@H](O)[C@@H](O)[C@H]2O)c2cc(O)c1c(O)c2 | = | 6.22 |
| CCCCC(Cl)CCCC[C@H](C)[C@@H](O[C@@H]1OC[C@@H](O)[C@@H](O)[C@H]1O)c1cc(O)c([C@@H](CCCC)CCCC[C@H](O)[C@@H](OC(C)=O)c2cc(O)cc(O)c2)c(O)c1 (some centres undefined) | < | 4.60 |
